Source of measurements: the supplement of paper PMC9112550

tested on: Escherichia coli TOP10; experiment: shrunken log2 fold change of peptide-encoding DNA abundance (4.5 h post-induction vs induction); higher = less antimicrobial activity (less host growth inhibition); details: time post-induction: 4.5 h; library: site-saturation at positions 5, 18, 19, 20;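 further: peptides expressed intracellularly from a pBAD plasmid library in pooled LB shake-flask culture, induced with 0.3% L-arabinose, DNA abundance read by NGS, three biological replicates, DESeq2 with apeglm shrinkage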
Please note: 1 applies when shrunken log2 fold change is -0.06 or greater, and 0 applies otherwise.

Example results:
# Sequence Code, Class Name
measured = [
    ("RRIRTRPPRLPRPRPRPVLEPRP", 1),
    ("RRIRLRPPRLPRPRPRPHLVPRP", 1),
    ("RRIRERPPRLPRPRPRPWLCPRP", 1),
    ("RRIRRRPPRLPRPRPRPMVHPRP", 1),
    ("RRIRDRPPRLPRPRPRPNMQPRP", 0),
]

Does the reported shrunken log2 fold change for RRIRVRPPRLPRPRPRPFPSPRP fall at or above the -0.06 mark?
0

Identify whether the reported shrunken log2 fold change of the following sequence is -0.06 or greater: RRIRWRPPRLPRPRPRPIVFPRP
0

Confirm if shrunken log2 fold change reported for the sequence RRIRHRPPRLPRPRPRPPNTPRP is -0.06 or above.
1
